System: Escherichia coli TOP10;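 note: peptides expressed intracellularly from a pBAD plasmid library in pooled LB shake-flask culture, induced with 0.3% L-arabinose, DNA abundance read by NGS, three biological replicates, DESeq2 with apeglm shrinkage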
assay_details: shrunken log2 fold change of peptide-encoding DNA abundance (4.5 h post-induction vs induction); higher = less antimicrobial activity (less host growth inhibition)
experimental_setup: time post-induction: 4.5 h; library: site-saturation at positions 5, 18, 19, 20

{"query_sequence": "RRIRPRPPRLPRPRPRPTIQPRP", "system": "Escherichia coli TOP10", "shrunken log2 fold change": -0.101}
{"query_sequence": "RRIRWRPPRLPRPRPRPVTMPRP", "system": "Escherichia coli TOP10", "shrunken log2 fold change": -0.0519}
{"query_sequence": "RRIRLRPPRLPRPRPRPPGLPRP", "system": "Escherichia coli TOP10", "shrunken log2 fold change": 0.149}
{"query_sequence": "RRIRDRPPRLPRPRPRPKGAPRP", "system": "Escherichia coli TOP10", "shrunken log2 fold change": 0.368}
{"query_sequence": "RRIRLRPPRLPRPRPRPYIHPRP", "system": "Escherichia coli TOP10", "shrunken log2 fold change": -1.05}
{"query_sequence": "RRIRNRPPRLPRPRPRPKCCPRP", "system": "Escherichia coli TOP10", "shrunken log2 fold change": -0.0855}
{"query_sequence": "RRIRSRPPRLPRPRPRPFWEPRP", "system": "Escherichia coli TOP10", "shrunken log2 fold change": 0.0122}
{"query_sequence": "RRIRYRPPRLPRPRPRPLWNPRP", "system": "Escherichia coli TOP10", "shrunken log2 fold change": -0.471}
{"query_sequence": "RRIRRRPPRLPRPRPRPLIIPRP", "system": "Escherichia coli TOP10", "shrunken log2 fold change": -0.376}
{"query_sequence": "RRIRKRPPRLPRPRPRPWPAPRP", "system": "Escherichia coli TOP10", "shrunken log2 fold change": 0.376}
{"query_sequence": "RRIRERPPRLPRPRPRPKTGPRP", "system": "Escherichia coli TOP10", "shrunken log2 fold change": -0.0863}
{"query_sequence": "RRIRHRPPRLPRPRPRPRTYPRP", "system": "Escherichia coli TOP10", "shrunken log2 fold change": -0.749}
{"query_sequence": "RRIRERPPRLPRPRPRPGPDPRP", "system": "Escherichia coli TOP10", "shrunken log2 fold change": -0.118}
{"query_sequence": "RRIRARPPRLPRPRPRPQENPRP", "system": "Escherichia coli TOP10", "shrunken log2 fold change": 0.394}
{"query_sequence": "RRIRARPPRLPRPRPRPHGWPRP", "system": "Escherichia coli TOP10", "shrunken log2 fold change": 0.184}
